# study.target: Recombinant human CD38 (Homo sapiens (Human))
# Sequence (P28907 whole entry): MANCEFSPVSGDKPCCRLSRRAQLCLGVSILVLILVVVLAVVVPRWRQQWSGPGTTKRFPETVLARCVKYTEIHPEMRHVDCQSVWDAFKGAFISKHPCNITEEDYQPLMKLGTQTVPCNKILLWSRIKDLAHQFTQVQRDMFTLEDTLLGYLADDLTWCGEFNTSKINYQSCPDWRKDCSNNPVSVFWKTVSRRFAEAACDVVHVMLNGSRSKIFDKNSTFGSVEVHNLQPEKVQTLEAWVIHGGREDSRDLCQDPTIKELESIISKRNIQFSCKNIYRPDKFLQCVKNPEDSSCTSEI
# assay.overview: Human CD38 hydrolase assay (fluorescence, ε-NAD substrate)
# Type: biochemical
# particulars: recombinant human CD38 0.8 nM, 4 μM ε-NAD, 30 min preincubation at 25° C., pH 7.4
Hi there, I'd appreciate the recorded IC50 for every entry that follows.

Recorded IC50 for Cc1cc(C(=O)N[C@H]2CC[C@H](N3CC[C@@H](F)C3)CC2)nc(-n2ccnc2)n1 [Example 13] , please? ≤ 100 nM

Recorded IC50 for Cc1cc(C(=O)N[C@H]2CC[C@H](N(C)CC(F)(F)F)CC2)nc(-n2ccnc2)n1 [Example 7] , please? ≤ 100 nM

Recorded IC50 for Cc1cc(C(=O)N[C@H]2CC[C@H](N[C@H](C)C(F)(F)F)CC2)nc(-n2ccnc2)n1 [Example 23] , please? ≤ 40 nM

Recorded IC50 for Cc1cc(C(=O)N[C@H]2CC[C@@H](N3CCC(F)(F)C3)CC2)nc(-n2ccnc2)n1 [Example 11] , please? ≤ 10000 nM

Recorded IC50 for Cc1cc(C(=O)N[C@H]2CC[C@H](N)CC2)nc(-n2ccnc2)n1 [Example 27] , please? ≤ 1000 nM

Recorded IC50 for Cc1cc(C(=O)N[C@H]2CC[C@H](NCC(F)F)CC2)nc(-n2ccnc2)n1 [Example 2] , please? ≤ 40 nM

Recorded IC50 for O=C(N[C@H]1CC[C@H](NCC(F)(F)F)CC1)c1cc(C2CC2)cc(-n2ccnc2)n1 [Example 20] , please? ≤ 100 nM

Recorded IC50 for Cc1cc(C(=O)N[C@H]2CC[C@H](NCC(F)F)CC2)nc(-c2cncs2)n1 [Example 8] , please? ≤ 1000 nM

###

# assay.overview: PK brain permeability in C57BL/6 mice after single oral gavage
# Type: in vivo
# particulars: male, C57BL/6, mouse, plasma, po, 10 mg/kg, 2 hours post dose, read-out: total plasma conc.
Hi there, I'd appreciate the recorded concentration at 2 h for every entry that follows.
Return type: number; implicit unit µM.

Recorded concentration at 2 h for "Cc1cc(C(=O)N[C@H]2CC[C@H](NCC(F)F)CC2)nc(-n2ccnc2)n1" , please? 9.37

Recorded concentration at 2 h for "Cc1cc(C(=O)N[C@H]2CC[C@H](NCC(F)(F)F)CC2)nc(-n2ccnc2)n1" , please? 21.9

Recorded concentration at 2 h for "O=C(N[C@H]1CC[C@H](NCC(F)F)CC1)c1cc(C2CC2)nc(-n2ccnc2)n1" , please? 6.39

Recorded concentration at 2 h for Cc1cc(C(=O)N[C@H]2CC[C@](C)(O)CC2)nc(-n2ccnc2)n1 [Example 18, reference compound] , please? 13

Recorded concentration at 2 h for Cc1cc(C(=O)N[C@H]2CC[C@H](OC(F)F)CC2)nc(-n2ccnc2)n1 [Example 17, reference compound] , please? 1.68

Recorded concentration at 2 h for "Cc1cc(C(=O)N[C@H]2CC[C@H](N3CCC(F)(F)C3)CC2)nc(-n2ccnc2)n1" , please? 15.1

Recorded concentration at 2 h for O=C(N[C@H]1CC[C@H](NCC(F)(F)F)CC1)c1nc(-n2ccnc2)nc2cc[nH]c12 [Example 29, reference compound] , please? 11.1

Recorded concentration at 2 h for "Cc1cc(C(=O)N[C@H]2CC[C@H](NC(C)(C)C(F)(F)F)CC2)nc(-n2ccnc2)n1" , please? 11.9

###

# assay.overview: PK brain permeability in C57BL/6 mice after single oral gavage
# Format: in vivo
# particulars: male, C57BL/6, mouse, brain, po, 10 mg/kg, 2 hours post dose, total corrected for unbound fraction in brain, read-out: free brain conc.
measurement.type: concentration at 2 h
Provide the measurement as a number trailed by its unit.

Recorded concentration at 2 h for "Cc1cc(C(=O)N[C@H]2CC[C@H](N3CCC(F)(F)C3)CC2)nc(-n2ccnc2)n1" , please? 0.507 µM

Recorded concentration at 2 h for Cc1cc(C(=O)N[C@H]2CC[C@](C)(O)CC2)nc(-n2ccnc2)n1 [Example 18, reference compound] , please? 0.122 µM

Recorded concentration at 2 h for "Cc1cc(C(=O)N[C@H]2CC[C@H](NC(C)(C)C(F)(F)F)CC2)nc(-n2ccnc2)n1" , please? 0.197 µM

Recorded concentration at 2 h for "O=C(N[C@H]1CC[C@H](NCC(F)F)CC1)c1cc(C2CC2)nc(-n2ccnc2)n1" , please? 0.224 µM

Recorded concentration at 2 h for "Cc1cc(C(=O)N[C@H]2CC[C@H](NCC(F)F)CC2)nc(-n2ccnc2)n1" , please? 1.39 µM

Recorded concentration at 2 h for "Cc1cc(C(=O)N[C@H]2CC[C@H](NCC(F)(F)F)CC2)nc(-n2ccnc2)n1" , please? 3.8 µM

Recorded concentration at 2 h for O=C(N[C@H]1CC[C@H](NCC(F)(F)F)CC1)c1nc(-n2ccnc2)nc2cc[nH]c12 [Example 29, reference compound] , please? 0.224 µM

Recorded concentration at 2 h for Cc1cc(C(=O)N[C@H]2CC[C@H](OC(F)F)CC2)nc(-n2ccnc2)n1 [Example 17, reference compound] , please? 0.01 µM

###

# assay.overview: Tissue binding assay, plasma (equilibrium dialysis)
# Assay type: in vitro ADME
# particulars: dialysis 4 hours at 37° C.
Hi there, I'd appreciate the recorded Mouse plasma (% unbound) for every entry that follows.

Recorded Mouse plasma (% unbound) for Cc1cc(C(=O)N[C@H]2CC[C@H](NCC(F)F)CC2)nc(-n2ccnc2)n1 [Example 2] , please? 22.7 % unbound

Recorded Mouse plasma (% unbound) for Cc1cc(C(=O)N[C@H]2CC[C@H](NCC(F)(F)F)CC2)nc(-n2ccnc2)n1 [Example 1] , please? 13.0 % unbound

Recorded Mouse plasma (% unbound) for Cc1cc(C(=O)N[C@H]2CC[C@](C)(O)CC2)nc(-n2ccnc2)n1 [Example 18, reference compound] , please? 25.3 % unbound

###

Hi there, I'd appreciate the recorded Mouse plasma (% unbound) for every entry that follows.
# assay.overview: Tissue binding assay, plasma (equilibrium dialysis)
# Format: in vitro ADME
# particulars: dialysis 4 hours at 37° C.
Return type: number; implicit unit % unbound.

Recorded Mouse plasma (% unbound) for "Cc1cc(C(=O)N[C@H]2CC[C@H](NC(C)(C)C(F)(F)F)CC2)nc(-n2ccnc2)n1" , please? 4.1

Recorded Mouse plasma (% unbound) for "O=C(N[C@H]1CC[C@H](NCC(F)F)CC1)c1cc(C2CC2)nc(-n2ccnc2)n1" , please? 7.4

Recorded Mouse plasma (% unbound) for "Cc1cc(C(=O)N[C@H]2CC[C@H](N3CCC(F)(F)C3)CC2)nc(-n2ccnc2)n1" , please? 10.6

Recorded Mouse plasma (% unbound) for Cc1cc(C(=O)N[C@H]2CC[C@H](OC(F)F)CC2)nc(-n2ccnc2)n1 [Example 17, reference compound] , please? 6.9

###

Hi there, I'd appreciate the recorded pIC50 for every entry that follows.
# study.target: Recombinant human CD38 (Homo sapiens (Human))
# assay.overview: Human CD38 hydrolase assay (fluorescence, ε-NAD substrate)
# particulars: recombinant human CD38 0.8 nM, 4 μM ε-NAD, 30 min preincubation at 25° C., pH 7.4
pIC50: −log10 of the molar value.

Recorded pIC50 for "Cc1cc(C(=O)N[C@H]2CC[C@H](NCCF)CC2)nc(-n2ccnc2)n1" , please? ≥ 6.00

Recorded pIC50 for "Cc1cc(C(=O)N[C@H]2CC[C@H](N3CCC(F)(F)C3)CC2)nc(-n2ccnc2)n1" , please? ≥ 7.40

Recorded pIC50 for "Cc1cc(C(=O)N[C@H]2CC[C@H](NCC(F)(F)F)CC2)nc(-n2cncc2C)n1" , please? ≥ 7.00

Recorded pIC50 for "Cc1cc(C(=O)N[C@H]2CC[C@H](NCC(F)(F)F)CC2)nc(-n2ccnc2)n1" , please? ≥ 7.40

###

# assay.overview: Tissue binding assay, brain homogenate (equilibrium dialysis)
# Format: in vitro ADME
# particulars: dialysis 4 hours at 37° C., dilution factor 4
Hi there, I'd appreciate the recorded Mouse brain (% unbound) for every entry that follows.
Return type: number; implicit unit % unbound.

Recorded Mouse brain (% unbound) for Cc1cc(C(=O)N[C@H]2CC[C@](C)(O)CC2)nc(-n2ccnc2)n1 [Example 18, reference compound] , please? 28.4

Recorded Mouse brain (% unbound) for Cc1cc(C(=O)N[C@H]2CC[C@H](NCC(F)(F)F)CC2)nc(-n2ccnc2)n1 [Example 1] , please? 68.9

Recorded Mouse brain (% unbound) for Cc1cc(C(=O)N[C@H]2CC[C@H](OC(F)F)CC2)nc(-n2ccnc2)n1 [Example 17, reference compound] , please? 13.6

Recorded Mouse brain (% unbound) for O=C(N[C@H]1CC[C@H](NCC(F)F)CC1)c1cc(C2CC2)nc(-n2ccnc2)n1 [Example 3] , please? 13.5

Recorded Mouse brain (% unbound) for Cc1cc(C(=O)N[C@H]2CC[C@H](NC(C)(C)C(F)(F)F)CC2)nc(-n2ccnc2)n1 [Example 21] , please? 3.6

Recorded Mouse brain (% unbound) for Cc1cc(C(=O)N[C@H]2CC[C@H](N3CCC(F)(F)C3)CC2)nc(-n2ccnc2)n1 [Example 10] , please? 9.7

Recorded Mouse brain (% unbound) for Cc1cc(C(=O)N[C@H]2CC[C@H](NCC(F)F)CC2)nc(-n2ccnc2)n1 [Example 2] , please? 63.4
